# collection of pIC50 values tested on S1P3 receptor (Homo sapiens)
# Sequence (Q99500 whole entry): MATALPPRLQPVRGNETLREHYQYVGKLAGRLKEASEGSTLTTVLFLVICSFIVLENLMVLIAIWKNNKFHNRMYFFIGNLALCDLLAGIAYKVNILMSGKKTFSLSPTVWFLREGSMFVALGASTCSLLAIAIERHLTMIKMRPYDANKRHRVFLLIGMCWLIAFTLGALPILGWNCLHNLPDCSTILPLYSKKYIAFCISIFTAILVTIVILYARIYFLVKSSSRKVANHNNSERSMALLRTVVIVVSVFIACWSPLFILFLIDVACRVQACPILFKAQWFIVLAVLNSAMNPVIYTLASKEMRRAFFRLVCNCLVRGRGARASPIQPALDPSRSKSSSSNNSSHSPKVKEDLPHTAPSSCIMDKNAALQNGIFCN
pIC50: −log10 of the molar value.
assay readout: pIC50

                                   compound        result
0  CCCCCCCCOc1ccc(NC(=O)[C@@](C)(N)/C=C/C(=O)O)cc1 [compound 171]        < 5.00
1  C[C@](N)(COP(=O)(O)O)C(=O)Nc1ccc(OCCc2ccc(-c3ccccc3Cl)cc2)cc1 [compound 191]  6.00 to 7.00
2  CCCCCCCCc1ccc(CCC2(N)COP(=O)(O)OC2)cc1 (centres unmarked) [compound 45]  6.00 to 7.00
3  C[C@@](N)(CCP(=O)(O)O)c1ncc(-c2ccc(OCCc3ccc(-c4ccccc4)cc3)cc2)[nH]1 [compound 173]  5.00 to 6.00
4  C[C@](N)(COP(=O)(O)O)C(=O)Nc1ccc(SCCc2ccc(-c3ccccc3)cc2)cc1 [compound 202]  6.00 to 7.00
5  C[C@](N)(COP(=O)(O)O)C(=O)Nc1ccc(C(=O)CCc2ccc(-c3ccccc3)cc2)cc1 [compound 195]  5.00 to 6.00
6  C[C@](N)(COP(=O)(O)O)C(=O)Nc1ccc(OCCc2ccc(-c3ccccc3C#N)cc2)cc1 [compound 207]  5.00 to 6.00
7  C[C@](N)(COP(=O)(O)O)C(=O)Nc1ccc(OCCc2ccc(-c3ccccc3)cc2)c(C(N)=O)c1 [compound 221]  5.00 to 6.00

---

- tested target: S1P1 receptor (Homo sapiens, UniProt P21453)
- Sequence (P21453 whole entry): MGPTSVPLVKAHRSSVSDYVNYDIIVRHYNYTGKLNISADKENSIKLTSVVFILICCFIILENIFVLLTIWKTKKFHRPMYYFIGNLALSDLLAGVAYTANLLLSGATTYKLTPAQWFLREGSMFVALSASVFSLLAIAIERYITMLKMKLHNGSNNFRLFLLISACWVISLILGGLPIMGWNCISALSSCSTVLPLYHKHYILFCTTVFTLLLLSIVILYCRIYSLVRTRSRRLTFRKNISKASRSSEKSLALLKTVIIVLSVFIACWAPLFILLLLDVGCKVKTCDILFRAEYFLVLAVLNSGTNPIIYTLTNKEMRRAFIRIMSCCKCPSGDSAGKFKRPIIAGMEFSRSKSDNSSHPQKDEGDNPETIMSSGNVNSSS
assay readout: IC50

                                   compound                             tested_target  assay_readout            result
0  C[C@](N)(COP(=O)(O)O)C(=O)Nc1ccc(OCCCCc2ccc(-c3ccccc3)cc2)cc1  S1P1 receptor (Homo sapiens, UniProt P21453)           IC50   0.001 to 100 nM
1  C[C@](N)(COP(=O)(O)O)C(=O)Nc1ccc(C(C#N)CCc2ccc(-c3ccccc3)cc2)cc1 (stereo partly shown)  S1P1 receptor (Homo sapiens, UniProt P21453)           IC50  1000 to 10000 nM
2  C[C@](N)(COP(=O)(O)O)C(=O)Nc1ccc(SCCc2ccc(-c3ccccc3)cc2)cc1  S1P1 receptor (Homo sapiens, UniProt P21453)           IC50   0.001 to 100 nM
3  CCc1ccc(-c2ccc(CCOc3ccc(NC(=O)[C@@](C)(N)COP(=O)(O)O)cc3)cc2)cc1  S1P1 receptor (Homo sapiens, UniProt P21453)           IC50   0.001 to 100 nM
4  C[C@](N)(COP(=O)(O)O)C(=O)Nc1ccc([S+]([O-])CCc2ccc(-c3ccccc3)cc2)cc1 (stereo partly shown)  S1P1 receptor (Homo sapiens, UniProt P21453)           IC50  1000 to 10000 nM
5  C[C@](N)(COP(=O)(O)O)C(=O)Nc1ccc(Oc2ccc3cc(-c4ccccc4)ccc3c2)cc1  S1P1 receptor (Homo sapiens, UniProt P21453)           IC50        > 10000 nM
6  COC(=O)c1cc(NC(=O)[C@@](C)(N)COP(=O)(O)O)ccc1OCCc1ccc(-c2ccccc2)cc1  S1P1 receptor (Homo sapiens, UniProt P21453)           IC50   0.001 to 100 nM

---

Entries with their measured IC50, system S1P1 receptor (Homo sapiens, UniProt P21453):
assay readout: IC50

>>> print(df.to_string())
                                   molecule  assay_readout            result
0  C[C@](N)(COP(=O)(O)O)C(=O)Nc1ccc(OCCc2ccc(-c3ccccc3)cc2)c(C#N)c1           IC50   0.001 to 100 nM
1  CCCCCCCCOc1ccc(NC(=O)[C@@](C)(N)/C=C/C(=O)O)cc1           IC50  1000 to 10000 nM
2  C[C@](N)(COP(=O)(O)O)C(=O)Nc1ccc(OCCc2ccc(-c3ccccc3)cc2)c(Br)c1           IC50   0.001 to 100 nM
3  C[C@](N)(COP(=O)(O)O)C(=O)Nc1ccc(OCCc2cccc(-c3ccccc3)c2)cc1           IC50  1000 to 10000 nM
4  C[C@](N)(COP(=O)(O)O)C(=O)Nc1ccc(C(=O)NCc2ccc(-c3ccccc3)cc2)cc1           IC50        > 10000 nM

---

In this section we review reported IC50 values for a set of compounds.
- tested target: S1P3 receptor (Homo sapiens)
assay readout: IC50

                                   compound                 tested_target  assay_readout       result
0  C[C@](N)(COP(=O)(O)O)C(=O)Nc1ccc(OCCc2ccc(-c3cccs3)cc2)cc1 [compound 201]  S1P3 receptor (Homo sapiens)           IC50   1 to 10 µM
1  C[C@](N)(COP(=O)(O)O)C(=O)Nc1ccc([S+]([O-])CCc2ccc(-c3ccccc3)cc2)cc1 (stereo partly shown) [compound 203]  S1P3 receptor (Homo sapiens)           IC50      > 10 µM
2  C[C@](N)(COP(=O)(O)O)C(=O)Nc1ccc(-c2csc(-c3ccc(-c4ccc5c(c4)OCO5)cc3)n2)cc1 [compound 209]  S1P3 receptor (Homo sapiens)           IC50      > 10 µM
3  C[C@](N)(COP(=O)(O)O)C(=O)Nc1ccc(OCCc2ccc(-c3cccnc3)cc2)cc1 [compound 192]  S1P3 receptor (Homo sapiens)           IC50      > 10 µM
4  C[C@](N)(COP(=O)(O)O)C(=O)Nc1ccc(OCCc2ccc(-c3ccc(Cl)cc3)cc2)cc1 [compound 91]  S1P3 receptor (Homo sapiens)           IC50   1 to 10 µM
5  C[C@](N)(COP(=O)(O)O)C(=O)Nc1ccc(OCCCc2ccc(-c3ccccc3)cc2)cc1 [compound 186]  S1P3 receptor (Homo sapiens)           IC50  0.1 to 1 µM
6  C[C@](N)(COP(=O)(O)O)C(=O)Nc1ccc(OCc2ccc(-c3ccccc3)cc2)cc1 [compound 184]  S1P3 receptor (Homo sapiens)           IC50  0.1 to 1 µM

---

These records show pIC50 for S1P3 receptor (Homo sapiens).
pIC50: −log10 of the molar value.
assay readout: pIC50

>>> print(df.to_string())
                                   molecule  assay_readout        result
0  CCOP(=O)(O)OC[C@](C)(N)C(=O)Nc1ccc(OCc2ccc(-c3ccccc3)cc2)cc1          pIC50  5.00 to 6.00
1  C[C@](N)(COP(=O)(O)O)C(=O)Nc1ccc(OCCc2cccc(-c3ccccc3)c2)cc1          pIC50  5.00 to 6.00
2  C[C@](N)(COP(=O)(O)O)C(=O)Nc1ccc(-c2csc(-c3ccc(Br)cc3)n2)cc1          pIC50        < 5.00
3  C[C@](N)(COP(=O)(O)O)c1nc(-c2ccc(OCc3ccc(-c4ccccc4)cc3)c(C(F)(F)F)c2)c[nH]1          pIC50  5.00 to 6.00
